# Tested on: U2OS
# Test protocol: Multiplex assay against U2OS
# Assay type: toxicity, cell-based
# Measurement conditions: human, 24 h, 10 µM, compound concentration 10 uM, replicate 2
Readout name: Population Healthy Nuclei (%)
Numbers only, in %.

- Compound: "O=C(Nc1cc(-c2ccccc2)nn1-c1ccccc1F)c1ccc([N+](=O)[O-])cc1"
  Population Healthy Nuclei (%): 76

List reported Population Healthy Nuclei (%) for each of these compounds:
1. COc1cc2nc(N3CCN(C(=O)c4ccco4)CC3)nc(N)c2cc1OC.Cl [PRAZOSIN HYDROCHLORIDE]
2. C=CCN1C[C@H](C(=O)N(CCCN(C)C)C(=O)NCC)C[C@@H]2c3cccc4[nH]cc(c34)C[C@H]21
3. Nc1nc(CC(=O)Nc2ccc(CCNC[C@H](O)c3ccccc3)cc2)cs1

## Output
1. 71
2. 75
3. 71

Would you mind listing Population Healthy Nuclei (%) for each of the following compounds?
1. CN(C)C(=O)Cn1cc(-c2ccc(-c3nnc4ccccn34)cc2)cn1
2. C[C@H](NC(=O)CNC(=O)c1cccc(Cl)c1)c1ccccc1
3. Cn1cc(C(=O)OCC2CCN(CCNS(C)(=O)=O)CC2)c2ccccc21
4. Cc1cc(-c2ccc3c(c2)CC[C@H]3N2CC3(CCN(C(=O)Cc4cn5cc(C)sc5n4)CC3)C2)ncn1

## Output
[85, 83, 73, 69]

Please give Population Healthy Nuclei (%) for each item listed below.
1. CCCCCCNC(=O)Nc1ccc(S(=O)(=O)Nc2ccc(CCNC[C@H](O)COc3ccc(O)cc3)cc2)cc1
2. CN1C[C@H](C(=O)N[C@]2(C)O[C@@]3(O)[C@@H]4CCCN4C(=O)[C@H](Cc4ccccc4)N3C2=O)C[C@@H]2c3cccc4[nH]cc(c34)C[C@H]21.CS(=O)(=O)O [DIHYDROERGOTAMINE MESYLATE]

## Output
1. 79
2. 75

###

What Population Apoptotic (%) was measured for each of the following?
# System: HEK-293T
# Test protocol: Multiplex assay against HEK293T
# Assay type: toxicity, cell-based
# Measurement conditions: human, 12 h, 1 µM, compound concentration 1 uM, replicate 1
Give bare numbers, in %.

Some molecules with known Population Apoptotic (%) results, for comparison:
- Molecule: "Cl.Cl.OCCOCCN1CCN(C(c2ccccc2)c2ccc(Cl)cc2)CC1 (centres undefined) [HYDROXYZINE HYDROCHLORIDE]"
  Target under test: "HEK-293T"
  Result unit: "%"
  Population Apoptotic (%): 34
- Molecule: "Nc1nc(CC(=O)Nc2ccc(CCNC[C@H](O)c3ccccc3)cc2)cs1"
  Target under test: "HEK-293T"
  Result unit: "%"
  Population Apoptotic (%): 22
- Molecule: "Cc1cc(-c2ccc3c(c2)CC[C@H]3N2CC3(CCN(C(=O)Cc4cn5cc(C)sc5n4)CC3)C2)ncn1"
  Target under test: "HEK-293T"
  Result unit: "%"
  Population Apoptotic (%): 36
- Molecule: "CCn1c(-c2nc3cc(C(=O)N4CCCC(N)C4)ccc3n2C)cc2ccccc21.Cl (centres undefined)"
  Target under test: "HEK-293T"
  Result unit: "%"
  Population Apoptotic (%): 54
- Molecule: "Cc1cc(=O)n(C)c2cc(N3C(=O)CC[C@H](NS(=O)(=O)CC(C)C)[C@H]3c3ccc(Cl)cc3)ccc12"
  Target under test: "HEK-293T"
  Result unit: "%"
  Population Apoptotic (%): 43

Hi! Can you tell me Population Apoptotic (%) for each of these molecules?
1. CN1CCN(c2ccc(Nc3c4ccccc4nc4ccccc34)cc2)CC1.Cl.Cl.O
2. O=C(NCCNCC(O)COc1ccc(O)cc1)N1CCOCC1.O=C(NCCNCC(O)COc1ccc(O)cc1)N1CCOCC1.O=C(O)/C=C/C(=O)O (centres undefined) [XAMOTEROL FUMARATE]

## Output
1. 42
2. 39

###

Task for the reader: assign each of the following compounds its reported Population Mitotic Cells (%).
# System: HEK-293T
# Test protocol: Multiplex assay against HEK293T
# Type: toxicity, cell-based
# Measurement conditions: human, 24 h, 1 µM, compound concentration 1 uM, replicate 1
One number for each entry, in %.

For each entry beneath this line, provide reported Population Mitotic Cells (%).
1. COc1c(Nc2ccc(S(C)(=O)=O)nc2C)ncnc1OC1CCN(C(=O)OC(C)C)CC1
2. Cc1cc(=O)n(C)c2cc(N3C(=O)CC[C@H](NS(=O)(=O)CC(C)C)[C@H]3c3ccc(Cl)cc3)ccc12
3. CC(C)C[C@H](CO)Nc1nc(S[C@@H](C)c2ccccc2)nc2nc(N)sc12
4. COc1cc2nc(N3CCN(C(=O)COc4c(OC)cccc4C(C)C)CC3)nc(N)c2cc1OC.Cl.Cl

## Output
[76, 66, 62, 64]

###

# Tested on: U2OS
# Test protocol: Multiplex assay against U2OS
# Format: toxicity, cell-based
# Measurement conditions: human, 12 h, 10 µM, compound concentration 10 uM, replicate 2
For each entry below, report its Population Hoechst High Intensity Objects (%) value.
In your response, put the unit directly after the numeric value.

Examples with their reported Population Hoechst High Intensity Objects (%) follow.
- Compound: "N[C@](CC1c2ccccc2Oc2ccccc21)(C(=O)O)[C@H]1C[C@@H]1C(=O)O"
  Reported result: "0%"
- Compound: "CCc1nn2c(C)cc(C)nc2c1Cc1ccc(-c2nnc(C3CCNCC3)o2)cc1"
  Reported result: "2%"
- Compound: "S=C(NCCCc1c[nH]cn1)NCCCN(Cc1ccc(Cl)c(Cl)c1)c1ccc(Br)cn1"
  Reported result: "0%"
- Compound: "O=C(O)CCC/C=C\\CC1C(O)CC(O)C1/C=C/C(O)COc1cccc(Cl)c1 (stereo not given)"
  Reported result: "0%"
- Compound: "Cn1cc(C(=O)OCC2CCN(CCNS(C)(=O)=O)CC2)c2ccccc21"
  Reported result: "1%"

Give Population Hoechst High Intensity Objects (%) for each listed item.
1. Nc1nc(-c2ccco2)c2cnn(Cc3ccccc3F)c2n1
2. C[C@H](NC(=O)CNC(=O)c1cccc(Cl)c1)c1ccccc1
3. OCCCNc1cc(-c2ccnc(Nc3cccc(Cl)c3)n2)ccn1
4. CC(C)(C)c1ccc(CSc2cnn(C(C)(C)C)c(=O)c2Cl)cc1

## Output
1. 0%
2. 0%
3. 10%
4. 0%

## Input Quote Population Hoechst High Intensity Objects (%) with test system U2OS for COCCCN1CCC(NC(=O)c2cc(Cl)c(N)c3c2OCC3)CC1 [PRUCALOPRIDE]
## Output 2%

###

# Test system: U2OS
# Test protocol: Multiplex assay against U2OS
# Format: toxicity, cell-based
# Measurement conditions: human, 24 h, 10 µM, compound concentration 10 uM, replicate 2
Non-standard residues stand in square brackets, D forms with d. Residues, ends and D or L forms follow the SMILES beside them.
Readout name: Population Normal (%)
One number for each entry, in %.

// below: answered compounds
- Compound: "Cc1nn(C)c2nc(NNC(=O)Nc3cc(Cl)nc(Cl)c3)cc(C(C)C)c12"
  Population Normal (%): 97
- Compound: "CC(C)C[C@@H]1NC(=O)[C@@H](C(C)C)NC(=O)[C@@H]2CCCN2C(=O)[C@@H](CC(=O)O)NC(=O)[C@@H](Cc2c[nH]c3ccccc23)NC1=O [BQ-123] (cyclo(L[dW][dD]P[dV]))"
  Population Normal (%): 99

Now, please, on to the next compound.
## Input Supply measured Population Normal (%) of O=C(O)CCC/C=C\CC1C(O)CC(O)C1/C=C/C(O)COc1cccc(Cl)c1 (stereo not drawn) in your reply.
## Output 100

###

# Test system: HEK-293T
# Test protocol: Multiplex assay against HEK293T
# Format: toxicity, cell-based
# Measurement conditions: human, 12 h, 1 µM, compound concentration 1 uM, replicate 2
Provide the recorded Population Normal (%) for the entries that follow.
Give bare numbers, in %.

Look up Population Normal (%) for the entries below, preserving their order.
1. Cc1cc(NC(=O)NCCN2CCC(O)(Cc3ccccc3)CC2)c2ccccc2n1 [PALOSURAN]
2. COc1ccc2[nH]c(I)c(CCNC(C)=O)c2c1 [IODOMELATONIN]
3. CC(C)(C)c1ccc(CSc2cnn(C(C)(C)C)c(=O)c2Cl)cc1 [PYRIDABEN]
4. O=C(O)CCC/C=C\CC1C(O)CC(O)C1/C=C/C(O)COc1cccc(Cl)c1 (configuration not stated) [CLOPROSTENOL]
5. COCCn1c(C)c(C)s/c1=N\C(=O)C1C(C)(C)C1(C)C
6. S=C(NCCCc1c[nH]cn1)NCCCN(Cc1ccc(Cl)c(Cl)c1)c1ccc(Br)cn1

## Output
1. 90
2. 92
3. 91
4. 92
5. 95
6. 93

## Input Report its Population Normal (%) with HEK-293T as the test system: CSc1nc(NC2CCCC2)c([N+](=O)[O-])c(NC2CCCC2)n1 [GS-39783]
## Output 95
